Target: Induced myeloid leukemia cell differentiation protein Mcl-1 (Homo sapiens)
Test: MCL1 binding to BIM-BH3 peptide, inhibitors, late-stage follow-up, biochemical, fluorescence polarization, assay provider data, round 3 (AID 602165)
Details: GST-MCL1 / FITC-BIM-BH3 peptide fluorescence polarization
MEASURED PARAMETER: IC50

Incoming: Using the record for Cc1ccnc(NC(c2cccs2)c2ccc3cccnc3c2O)c1 (stereo not drawn) , report its IC50.
Outgoing: 400 nM

Incoming: // next record OCCN1CCN(C(c2cccs2)c2ccc3cccnc3c2O)CC1 (stereo not drawn)
Outgoing: 3300 nM

Incoming: // next record Oc1c(C(c2cccs2)N2CCCCC2)ccc2cccnc12 (stereo not drawn)
Outgoing: 2500 nM

Incoming: // next record CCN1CCN(C(c2cccs2)c2ccc3cccnc3c2O)CC1 (stereo not drawn)
Outgoing: 1600 nM

Incoming: // next record CC(C)Oc1ccc(C(Nc2ccccn2)c2ccc3cccnc3c2O)cc1 (stereo not drawn)
Outgoing: 1300 nM

Incoming: // next record Oc1c(C(c2cccs2)N2CCN(c3ccccn3)CC2)ccc2cccnc12 (stereo not drawn)
Outgoing: 500 nM

Incoming: // next record Oc1c(C(Nc2ccccn2)c2cccs2)ccc2cccnc12 (stereo not drawn)
Outgoing: 600 nM

Incoming: // next record CN1CCN(C(c2ccc(F)cc2)c2ccc3cccnc3c2O)CC1 (stereo not drawn)
Outgoing: 600 nM

Source of measurements: PubChem BioAssay AID602165
